experiment: Her2 expression decrease, cell viability multiplex – SKBR3 breast tumor cells, AlphaScreen, ATP viability, primary screen (AID 461); settings: SKBR3 Her2 protein level, 18-24 h, measured here: SKBR3 viability, ATP luminescence, at 10 µM;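 note: percent of carrier control wells set as 100% viability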
MEASUREMENT_KIND: viability
Respond with the figure and its unit, in that order.

Consider the reported viability for these molecules:
> print(dat)
                                    molecule  measurement.kind  result
 1  CCOCCCNC(=O)c1ccc2c(c1)N(Cc1ccccc1)C(=O)CS2=O (stereo not drawn)         viability    104%
 2  CCCNC(=O)C1CCN(S(=O)(=O)c2ccc3nc4c(c(C(=O)O)c3c2)CCCCC4)CC1         viability     99%
 3  O=C(O)C1CC=CCC1C(=O)Nc1cccc(F)c1 (stereo not drawn)         viability     94%
 4   CCOC(=O)c1sc2nc(NC(=O)COc3ccccc3)sc2c1C         viability   78.5%
 5  COC(=O)C1=C(N)OC2=C(C(=O)CCC2)C1c1cccs1 (stereo not drawn)         viability    110%
 6  CCOC(=O)c1cc2c(=O)n3ccccc3nc2n(CCCOC)c1=NC(=O)C(C)(C)C         viability     91%
 7            CN(C)CCNc1oc(-c2ccccc2F)nc1C#N         viability     93%
 8  Cc1cc(N2CCOCC2)nc2ccc(NC(=O)C3CCC(C)CC3)cc12 (stereo not drawn)         viability   73.5%
 9                Cc1cc(C)nc(SCc2csc(N)n2)n1         viability   89.5%
10  COc1cc2c(cc1OC)CN(C(=O)CSc1nc3[nH]ncc3c(=O)n1-c1ccccc1)CC2         viability    105%

Enquiry: Reported viability, molecule O=C(Nc1cccc2ccccc12)c1ccc(Br)o1 : ____
Return: 120%

Enquiry: Reported viability, molecule O=C(CC1(O)C(=O)Nc2ccccc21)c1ccc2c(c1)OCO2 (stereo not drawn) : ____
Return: 104%

Enquiry: Reported viability, molecule COc1ccc(CCNC(=O)c2cnn3ccccc23)c(OC)c1OC : ____
Return: 92.5%

Enquiry: Reported viability, molecule Cc1ccccc1NC(=O)C1CCCN(S(=O)(=O)c2cnc[nH]2)C1 (stereo not drawn) : ____
Return: 85.5%

Enquiry: Reported viability, molecule Cc1ccccc1Cn1cc(/C=N/n2cnnc2)c2ccccc21 : ____
Return: 100%
